- TGT: Endothelin-1 receptor (Rattus norvegicus, UniProt P26684)
- Sequence (P26684 whole entry): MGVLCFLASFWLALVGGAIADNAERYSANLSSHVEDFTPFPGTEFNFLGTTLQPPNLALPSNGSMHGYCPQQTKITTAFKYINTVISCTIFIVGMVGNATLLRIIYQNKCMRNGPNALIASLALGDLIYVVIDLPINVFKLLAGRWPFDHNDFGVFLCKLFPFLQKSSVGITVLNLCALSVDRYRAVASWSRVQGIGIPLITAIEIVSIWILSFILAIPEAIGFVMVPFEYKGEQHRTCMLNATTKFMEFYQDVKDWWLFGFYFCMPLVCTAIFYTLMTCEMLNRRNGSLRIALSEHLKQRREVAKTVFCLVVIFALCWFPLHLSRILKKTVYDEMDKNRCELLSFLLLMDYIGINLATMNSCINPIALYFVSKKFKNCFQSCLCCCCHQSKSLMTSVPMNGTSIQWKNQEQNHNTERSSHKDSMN
- PROTOCOL_TEXT: In vitro inhibition of endothelin binding to endothelin A receptor in rat heart ventricles was measured using a 125-I labelled ET-1 competition assay
PARAMETER: IC50 (nM)
A number alone suffices; assume nM.

The cases that follow already have their IC50 on record.
O=C(O)COc1cccc(Cn2[nH]c(C(F)(F)F)c(Cc3ccc4c(c3)OCO4)c2=O)c1: 3500
COc1cccc(Cn2[nH]c(C(F)(F)F)c(Cc3ccc(Cl)c(Cl)c3)c2=O)c1: 10000
COc1cccc(Cn2nc(-c3ccccc3)c(Cc3ccc4c(c3)OCO4)c2C(=O)O)c1: 28
COc1ccc(Cc2c(C(F)(F)F)[nH]n(Cc3cccc(OC)c3)c2=O)cc1: 48000
COc1cccc(Cn2[nH]c(C(F)(F)F)c(Cc3cc(Cl)c4c(c3)OCO4)c2=O)c1: 1300
COc1cccc(Cn2[nH]c(C(F)(F)F)c(Cc3cc4c(cc3Cl)OCO4)c2=O)c1: 600

So, COc1cccc(Cn2[nH]c(C(F)(F)F)c(Cc3ccc(F)cc3)c2=O)c1 ? Its IC50 was 40000

Record COc1ccc(Cn2[nH]c(C(F)(F)F)c(Cc3ccc4c(c3)OCO4)c2=O)cc1 . Reported IC50: 2100

Please fill in: IC50 reported for COc1cccc(Cn2[nH]c(C(F)(F)C(F)(F)C(F)(F)F)c(Cc3ccc4c(c3)OCO4)c2=O)c1 = 140
